// data source = the supplement of paper PMC11246515

experiment: total protein half-life in vivo (active degradation + dilution); higher = more stable protein; conditions: E. coli NCM3722 delta-clpP delta-lon delta-hslV; growth: N-lim chemostat; doubling time 6 h

sequence chain	total protein half-life in vivo [h]
MKILVTGGAGFIGSAVVRHIINNTQDSVVNVDKLTYAGNRESLADVSDSERYVFEHADICDAPAMARIFAQHQPDAVMHLAAESHVDRSITGPAAFIETNIVGTYVLLEAARNYWSALDSDKKNSFRFHHISTDEVYGDLPHPDEVNNTEELPLFTETTAYAPSSPYSASKASSDHLVRAWKRTYGLPTIVTNCSNNYGPYHFPEKLIPLVILNALEGKALPIYGKGDQIRDWLYVEDHARALYTVVTEGKAGETYNIGGHNEKKNIDVVLTICDLLDEIVPKEKSYREQITYVADRPGHDRRYAIDAEKIGRALGWKPQETFESGIRKTVEWYLSNTKWVDNVKSGAYQSWIEQNYEGRQ	5.58
MVDKSQETTHFGFQTVAKEQKADMVAHVFHSVASKYDVMNDLMSFGIHRLWKRFTIDCSGVRRGQTVLDLAGGTGDLTAKFSRLVGETGKVVLADINESMLKMGREKLRNIGVIGNVEYVQANAEALPFPDNTFDCITISFGLRNVTDKDKALRSMYRVLKPGGRLLVLEFSKPIIEPLSKAYDAYSFHVLPRIGSLVANDADSYRYLAESIRMHPDQDTLKAMMQDAGFESVDYYNLTAGVVALHRGYKF [P0A887]	5.4
MSKPIVMERGVKYRDADKMALIPVKNVATEREALLRKPEWMKIKLPADSTRIQGIKAAMRKNGLHSVCEEASCPNLAECFNHGTATFMILGAICTRRCPFCDVAHGRPVAPDANEPVKLAQTIADMALRYVVITSVDRDDLRDGGAQHFADCITAIREKSPQIKIETLVPDFRGRMDRALDILTATPPDVFNHNLENVPRIYRQVRPGADYNWSLKLLERFKEAHPEIPTKSGLMVGLGETNEEIIEVMRDLRRHGVTMLTLGQYLQPSRHHLPVQRYVSPDEFDEMKAEALAMGFTHAACGPFVRSSYHADLQAKGMEVK	5.22
MSQTVHFQGNPVTVANSIPQAGSKAQTFTLVAKDLSDVTLGQFAGKRKVLNIFPSIDTGVCAASVRKFNQLATEIDNTVVLCISADLPFAQSRFCGAEGLNNVITLSTFRNAEFLQAYGVAIADGPLKGLAARAVVVIDENDNVIFSQLVDEITTEPDYEAALAVLKA [P0A862]	5.35
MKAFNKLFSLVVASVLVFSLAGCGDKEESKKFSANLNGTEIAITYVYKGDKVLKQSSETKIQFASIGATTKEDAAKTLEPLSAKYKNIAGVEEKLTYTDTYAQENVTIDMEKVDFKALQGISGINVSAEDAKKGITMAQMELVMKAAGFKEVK	5.1
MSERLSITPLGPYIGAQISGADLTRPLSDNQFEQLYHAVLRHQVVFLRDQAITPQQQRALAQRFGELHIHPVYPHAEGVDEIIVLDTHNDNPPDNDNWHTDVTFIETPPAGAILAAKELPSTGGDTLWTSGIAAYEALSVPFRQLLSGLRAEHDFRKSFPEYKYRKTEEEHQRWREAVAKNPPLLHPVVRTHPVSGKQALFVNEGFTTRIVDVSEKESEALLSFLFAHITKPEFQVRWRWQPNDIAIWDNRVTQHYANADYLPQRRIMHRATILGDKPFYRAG	4.38
